- Tested On: human NPSR (Homo sapiens)
- Construct: This receptor protein is identical to the NPSR that we have studied extensively for its pharmacology; expressed in transfected cells
- Sequence (Q6W5P4 whole entry): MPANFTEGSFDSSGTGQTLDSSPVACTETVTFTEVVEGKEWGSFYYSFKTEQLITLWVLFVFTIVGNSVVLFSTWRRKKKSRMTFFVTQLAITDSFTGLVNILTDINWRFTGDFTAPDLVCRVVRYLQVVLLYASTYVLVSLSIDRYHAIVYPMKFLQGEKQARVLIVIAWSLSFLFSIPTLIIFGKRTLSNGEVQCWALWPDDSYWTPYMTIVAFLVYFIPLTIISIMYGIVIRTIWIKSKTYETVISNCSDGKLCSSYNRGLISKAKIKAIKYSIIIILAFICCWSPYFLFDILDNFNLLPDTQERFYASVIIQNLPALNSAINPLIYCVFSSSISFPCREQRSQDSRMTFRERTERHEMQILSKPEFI
- Procedure Details: Mobilization of intracellular Ca2+ (FLIPR) in HEK 293T cells stably expressing human NPSR
- Assay type: cell-based
- Assay Setup: HEK 293T cells stably expressing human NPSR; read-out: EC50 for mobilization of [Ca2+]i
Where no end group is shown, it is not given here.
Measurement Type: EC50 (nM)

>>> observed_value("SFRNGVGSGVKKTSFRRAKQ [rat NPS]")
3.2
>>> observed_value("SFRNGVGSGAKKTSFRRAKQ [mouse NPS]")
3
